Form field: Enzyme Activity Endpoint Assay: Fab′2 (one value per entry).
Molecular target: pooled human IgG (human IgG1, 2, 3 and 4)
Field: numeric (ng/µL). Do not append units.

Here's what some known entries look like.
protein	reported.property	readout.units	observed
PRT-581 (protein) MANQEIRYSKATPKTITSVWTKGVTPPENFIYNEDVLHAPYLANQGWYDITKTFNGKDDLLCGAATAGNMLHWWFDQNKEQIERYLKEHPEKQKINFNGEQMFDVKEAIDTKDSQTNSKLFEYFKDKAFPYLSTKHLGVFPDHVIDMFINGYRLSLTNHGPTPVKEQTKDPRGGIFDAVFTRGDQSKLLTSRHDFKEKTLNEISDLIKQELTEGKALGLSHTYANVRINHVINLWGADFDAEGNLEAIYVTDSDSNASIGMKKYYVGVNSAGKVAISAKEIEGDNIGAQVLGLFTLSTGKDIWEQTNLEHHHHHH	Enzyme Activity Endpoint Assay: Fab′2	ng/µL	660
PRT-586 (protein) MANQEIRYSEETPKTITSVWTKGVTPPTDFIYNEDVLHAPYIANQGWYDITKTFNGKDDLLCGAATAGNMLHWWFDQNKEQIERYLKKHPEKQKINFNGEQMFDVKEAIDTKDSQTDSKLFEYFKDKAFPYLSTKHLGVFPDHVIDMFINGYRLSLTNHGPTPVKRGTKDPRGGIFDAVFTRGDQSKLLTSRHDFKEKTLNEISDLIKQELTEGKALGLSHTYANVRINHVINLWGADFNAEGNLEAIYVTDSDSNASIGMKKYYVGVNSAGKVAISAKEIEGDNIGAQVLGLFTLSTGQDIWEQTNLEHHHHHH	Enzyme Activity Endpoint Assay: Fab′2	ng/µL	478
PRT-263 (protein) MVTSVWTKGVTPPTNFTYGEDVLHAPYVANQGWYDITKLFNGKDNLLCGAATAGNMLHWWFDQNKEQIENYLKKHPEKQKINFNGEQLFDVKEAIDTKDSQLDSKLFEYFLEKAFPNLSTKHLGVFPDHVIDMFINGYRLSLLNHGPTPVKRGSKDKRGGIFDAVFTRGVQSKLLTNRHDFKEKTLKEISDLIKQELTEGKALGISHTYANGRINHVINLWGADFDAEGNLEAIAVTDSDTNASIGMKKYFVGVNSSGKVAISAKEIEEDNIGAQVLGLFTLSTGQDIWNQTN	Enzyme Activity Endpoint Assay: Fab′2	ng/µL	0

Alright, here's another protein for you.
Look at this protein and give its reported Enzyme Activity Endpoint Assay: Fab′2. PRT-416 (protein) MTITSVWTKGVTPPTPEDFRYNNEDVLHAPYVANQGWYDITKTFDGKDNLLCGAATAGNMLHWWFDQNKEEIERYLKKHPEKQKIIFNNQELFDVKAAIDTKDSQTNSKLFNYFRDKAFPNLSARQLGVMPDLVLDMFINGYYLNLPKTQSTDVNRPYQDKDKRGGIFDAVFTRGDQTTLLTARHDLKNKGLNEISDLIKQELTEGKALALSHTYANVRINHVINLWGADFDAEGNLIAIYVTDSDANASIGMKKYFVGVNANGKVAISAKKIEGDNIGAQVLGLFTLSTGQDIWQKLS 125
